Target Of Assay: ~100 representative kinases (Homo sapiens)
Construct: Recombinant protein kinase domains with a concentration of 2 μM
Experimental Protocol: DSF 100 kinase selectivity screen;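 also: compound tested at 20 µM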
Type: binding
Stated Conditions: Protein CK2A1; average of three replicates
# note: boundary value 0 K maps to not fulfilled; dTm below it maps to fulfilled

In [3]: df
Out[3]:
                         structure_as_smiles          class
 0  O=C(Nc1cccc(-c2c[nH]c3ncnc(N4CCOCC4)c23)c1)C1(C(=O)Nc2cccc3c2CCC3)CC1      fulfilled
 1  COc1cc(S(C)(=O)=O)ccc1Nc1nc(N(C)C)c2c(Cl)c[nH]c2n1  not fulfilled
 2  CCSc1nc(NC)c2c(-c3cccc(NC(=O)Nc4cc(C(C)(C)C)nn4-c4ccc(C)cc4)c3)c[nH]c2n1  not fulfilled
 3  C[C@@H]1CN(c2cc(-c3n[nH]c4ccc(OC5(C)CC5)cc34)ncn2)C[C@H](C)O1  not fulfilled
 4  COc1ccc(NC(=O)C2(C(=O)Nc3cccc(-c4c[nH]c5ncnc(N6CCOCC6)c45)c3)CC2)cc1  not fulfilled
 5  O=C(Nc1cccc(-c2c[nH]c3ncnc(N4CCOCC4)c23)c1)C1(C(=O)Nc2ccc(F)cc2F)CC1      fulfilled
 6  CC(=O)N1CCN(c2nc(Cl)nc3[nH]cc(-c4cccc(NC(=O)Nc5cc(C(C)(C)C)nn5-c5ccc(C)cc5)c4)c23)CC1  not fulfilled
 7  Cc1ccc(C(=O)Nc2ccc(CN3CCN(C)CC3)c(C(F)(F)F)c2)cc1C#Cc1c[nH]c2ncnc(N3CCOCC3)c12  not fulfilled
 8  O=C(Nc1cccc(-c2c[nH]c3ncnc(N4CCOCC4)c23)c1)C1(C(=O)Nc2cc(Br)c(F)cc2F)CC1      fulfilled
 9  Cc1cc(F)ccc1NC(=O)C1(C(=O)Nc2cccc(-c3c[nH]c4ncnc(N5CCOCC5)c34)c2)CC1  not fulfilled
10  O=C(Nc1cccc(-c2c[nH]c3ncnc(N4CCOCC4)c23)c1)c1cccn(-c2ccc(F)cc2)c1=O  not fulfilled
11  Cn1cc(-c2c[nH]c3ncnc(N4CCOCC4)c23)cc1C#N  not fulfilled

----------
The molecules listed here are annotated with their dTm.
Target Of Assay: ~100 representative kinases (Homo sapiens)
Construct: Recombinant protein kinase domains with a concentration of 2 μM
Experimental Protocol: DSF 100 kinase selectivity screen;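 also: compound tested at 20 µM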
Type: binding
Stated Conditions: protein MST4; average of three replicates
Value Type: dTm (K)

In [3]: df
Out[3]:
                                    molecule  value_type  unit_of_measure  value_reported
 0  Cc1ccc(C(=O)Nc2ccc(CN3CCN(C)CC3)c(C(F)(F)F)c2)cc1C#Cc1cnc2[nH]ncc2c1 [GZD-824, reference compound]         dTm                K            8.85
 1  Cc1ccc(C(=O)Nc2ccc(CN3CCN(C)CC3)c(C(F)(F)F)c2)cc1C#Cc1c[nH]c2ncnc(N3CCOCC3)c12 [Compound 1]         dTm                K            4.54
 2  O=C(Nc1ccccc1)C1(C(=O)Nc2cccc(-c3c[nH]c4ncnc(N5CCOCC5)c34)c2)CC1 [Compound 12]         dTm                K            3.77
 3  Cc1cc(F)ccc1NC(=O)C1(C(=O)Nc2cccc(-c3c[nH]c4ncnc(N5CCOCC5)c34)c2)CC1 [Compound 24]         dTm                K            2.44
 4  COc1cc(NC(=O)C2(C(=O)Nc3cccc(-c4c[nH]c5ncnc(N6CCOCC6)c45)c3)CC2)ccc1F [Compound 21]         dTm                K            6.10
 5  CNC(=O)c1cc(Oc2ccc(NC(=O)Nc3cc(C(C)(C)C)nn3-c3ccc4ncccc4c3)c(F)c2)ccn1 [Rebastinib, reference compound]         dTm                K            5.29
 6  O=C(Nc1cc(F)cc(Br)c1)C1(C(=O)Nc2cccc(-c3c[nH]c4ncnc(N5CCOCC5)c34)c2)CC1 [Compound 27]         dTm                K            3.14
 7  Cc1ccc(-n2nc(C(C)(C)C)cc2NC(=O)Nc2cccc(-c3c[nH]c4ncnc(N5CCOCC5)c34)c2)cc1 [Compound 29]         dTm                K            3.56
 8  C[C@@H]1CN(c2cc(-c3n[nH]c4ccc(OC5(C)CC5)cc34)ncn2)C[C@H](C)O1 [MLi2]         dTm                K           -0.41
 9  O=C(Nc1cccc(-c2c[nH]c3ncnc(N4CCOCC4)c23)c1)C1(C(=O)Nc2ccc(F)c(Br)c2F)CC1 [Compound 26]         dTm                K            1.39
10  CCNc1nc(Nc2cc(F)c(C(=O)N3CCOCC3)cc2OC)ncc1C(F)(F)F [GNE-7915]         dTm                K            0.65
11  COc1cc(C(=O)N2CCOCC2)c(F)cc1Nc1nc(N(C)C)c2c(Cl)c[nH]c2n1 [Compound 36]         dTm                K           -3.37
12  O=C(Nc1cccc(-c2c[nH]c3ncnc(N4CCOCC4)c23)c1)C1(C(=O)Nc2ccc(F)c(Br)c2)CC1 [Compound 19]         dTm                K            6.31
13  O=C(Nc1ccc(Cl)cc1)C1(C(=O)Nc2cccc(-c3c[nH]c4ncnc(N5CCOCC5)c34)c2)CC1 [Compound 13]         dTm                K            5.13
14  Cc1cc(NC(=O)C2(C(=O)Nc3ccc(F)cc3)CC2)cc(-c2c[nH]c3ncnc(N4CCOCC4)c23)c1 [Compound 6]         dTm                K            3.15
15  Cc1cc(NC(=O)C2(C(=O)Nc3cccc(-c4c[nH]c5ncnc(N6CCOCC6)c45)c3)CC2)ccc1F [Compound 20]         dTm                K            7.93
16  CC(C)(C)c1cccc(NC(=O)C2(C(=O)Nc3cccc(-c4c[nH]c5ncnc(N6CCOCC6)c45)c3)CC2)c1 [Compound 22]         dTm                K            4.41
17  CCc1ccc(NC(=O)C2(C(=O)Nc3cccc(-c4c[nH]c5ncnc(N6CCOCC6)c45)c3)CC2)cc1 [Compound 15]         dTm                K            2.78
18  Cc1ccc(-n2nc(C(C)(C)C)cc2NC(=O)Nc2cccc(-c3c[nH]c4nc(Cl)nc(N5CCOCC5)c34)c2)cc1 [Compound 30]         dTm                K           -1.63

----------
Target Of Assay: ~100 representative kinases (Homo sapiens)
Construct: Recombinant protein kinase domains with a concentration of 2 μM
Experimental Protocol: DSF 100 kinase selectivity screen;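 also: compound tested at 20 µM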
Type: binding
Stated Conditions: Protein EPHA4; average of three replicates
Could you label it Fulfilled if measured dTm is 3 K or higher, and Not fulfilled otherwise?

>>> print(df.to_string())
                                    compound          class
 0  O=C(Nc1cccc(-c2c[nH]c3ncnc(N4CCOCC4)c23)c1)C1(C(=O)Nc2ccc(F)c(Br)c2F)CC1 [Compound 26]  Not fulfilled
 1  Cc1cc(F)ccc1NC(=O)C1(C(=O)Nc2cccc(-c3c[nH]c4ncnc(N5CCOCC5)c34)c2)CC1 [Compound 24]  Not fulfilled
 2  CN[C@@H]1C[C@H]2O[C@@](C)([C@@H]1OC)n1c3ccccc3c3c4c(c5c6ccccc6n2c5c31)C(=O)NC4 [Staurosporine]      Fulfilled
 3  COc1cc2c(Oc3ccc(NC(=O)C4(C(=O)Nc5ccc(F)cc5)CC4)cc3F)ccnc2cc1OCCCN1CCOCC1 [Foretinib, reference compound]      Fulfilled
 4  O=C(Nc1cccc(-c2c[nH]c3ncnc(N4CCOCC4)c23)c1)C1(C(=O)Nc2ccc(F)c(Cl)c2)CC1 [Compound 18]  Not fulfilled
 5  CC(=O)N1CCN(c2nc(Cl)nc3[nH]cc(-c4cccc(NC(=O)Nc5cc(C(C)(C)C)nn5-c5ccc(C)cc5)c4)c23)CC1 [Compound 31]  Not fulfilled
 6  COc1cc(C(=O)N2CCOCC2)c(F)cc1Nc1nc(N(C)C)c2c(Cl)c[nH]c2n1 [Compound 36]  Not fulfilled
 7  Cc1ccc(C(=O)Nc2ccc(CN3CCN(C)CC3)c(C(F)(F)F)c2)cc1C#Cc1cnc2[nH]ncc2c1 [GZD-824, reference compound]      Fulfilled
 8  CCNc1nc(Nc2cc(F)c(C(=O)N3CCOCC3)cc2OC)ncc1C(F)(F)F [GNE-7915]  Not fulfilled
 9  Cc1ccc(C(=O)Nc2ccc(CN3CCN(C)CC3)c(C(F)(F)F)c2)cc1C#Cc1c[nH]c2ncnc(N3CCOCC3)c12 [Compound 1]      Fulfilled
10  CC(C)(C)c1cccc(NC(=O)C2(C(=O)Nc3cccc(-c4c[nH]c5ncnc(N6CCOCC6)c45)c3)CC2)c1 [Compound 22]  Not fulfilled
11  O=C(Nc1ccc(Cl)cc1)C1(C(=O)Nc2cccc(-c3c[nH]c4ncnc(N5CCOCC5)c34)c2)CC1 [Compound 13]      Fulfilled
12  Cc1cc(NC(=O)C2(C(=O)Nc3cccc(-c4c[nH]c5ncnc(N6CCOCC6)c45)c3)CC2)ccc1F [Compound 20]      Fulfilled
13  O=C(Nc1cccc(-c2c[nH]c3ncnc(N4CCOCC4)c23)c1)c1cccn(-c2ccc(F)cc2)c1=O [Compound 4]  Not fulfilled
14  CNC(=O)c1cc(Oc2ccc(NC(=O)Nc3cc(C(C)(C)C)nn3-c3ccc4ncccc4c3)c(F)c2)ccn1 [Rebastinib, reference compound]      Fulfilled
15  O=C(Nc1cccc(-c2c[nH]c3ncnc(N4CCOCC4)c23)c1)C1(C(=O)Nc2cccc3c2CCC3)CC1 [Compound 11]  Not fulfilled
16  O=C(Nc1cccc(-c2c[nH]c3ncnc(N4CCOCC4)c23)c1)C1(C(=O)Nc2cc(Br)c(F)cc2F)CC1 [Compound 25]  Not fulfilled
